Where these numbers come from: PubChem BioAssay

test: caspase-8 TRAIL sensitization, hit retest, confirmation, cell-based, NB7+caspase-8, with/without TRAIL, luminescence panel (AID 651596); details: NB7 neuroblastoma + caspase-8, without TRAIL, luminescence viability, without TRAIL, mean of runs, at 10 µM
activity less than 80% is met; activity greater than or equal to 80% is not met.

Prompt: Here's an entry: COc1ccc(C(C(=O)NC2CCCC2)N(C(=O)c2snc(-c3ccc(F)cc3)c2N)c2ccc(F)cc2)cc1 (stereo not given) . Is its activity below 80%?
Completion: met

Prompt: Here's an entry: COc1ccc(-c2cc3ccc(F)cc3cn2)cc1 . Is its activity below 80%?
Completion: met

Prompt: Here's an entry: N=NC(=O)c1ccccc1Nc1c(O)[nH]c2ccccc12 . Is its activity below 80%?
Completion: not met

Prompt: Here's an entry: Cc1ccccc1Oc1cc(-n2ncc(Cl)c(Cl)c2=O)ncn1 . Is its activity below 80%?
Completion: not met

Prompt: Here's an entry: O=C(Nc1ccc(O)cc1)c1ccc2c(c1)C(=O)N(Cc1ccccc1)C2=O . Is its activity below 80%?
Completion: met

Prompt: Here's an entry: CCN(CC)c1ccc(C(=O)OCc2cc(=O)oc3cc(O)ccc23)cc1 . Is its activity below 80%?
Completion: not met

Prompt: Here's an entry: N/C(=N\OC(=O)c1ccc([N+](=O)[O-])cc1Cl)c1ccccn1 . Is its activity below 80%?
Completion: not met

Prompt: Here's an entry: O=C(N/N=C/C=C/c1ccccc1)c1cc2c(ccc3ccccc32)o1 . Is its activity below 80%?
Completion: met

Prompt: Here's an entry: Cc1ccc(NC(=O)c2nc(S(=O)(=O)Cc3ccccc3)ncc2Cl)cc1 . Is its activity below 80%?
Completion: not met

Prompt: Here's an entry: NC(=O)c1oc2ccccc2c1NC(=O)c1ccc([N+](=O)[O-])o1 . Is its activity below 80%?
Completion: not met

Prompt: Here's an entry: Cc1ccc(C(=O)N/N=C\c2ccccc2[N+](=O)[O-])cn1 . Is its activity below 80%?
Completion: met

Prompt: Here's an entry: O=C(/C=C/Nc1ccccc1F)c1ccc(Br)cc1 . Is its activity below 80%?
Completion: met

Prompt: Here's an entry: CCC1=NN(C(=O)c2cccc(Br)c2)C(O)(c2ccc(Br)cc2)C1 (stereo not given) . Is its activity below 80%?
Completion: met

Prompt: Here's an entry: O=C1c2ccccc2S(=O)(=O)c2cc(N3CCOCC3)ccc21 . Is its activity below 80%?
Completion: met

Prompt: Here's an entry: Cc1ccnc(NC(=S)NC(=O)c2ccco2)c1 . Is its activity below 80%?
Completion: met

Prompt: Here's an entry: O=C1c2ccccc2NC(c2ccccc2)N1/N=C/c1ccccc1 (stereo not given) . Is its activity below 80%?
Completion: met

Prompt: Here's an entry: Cc1ccc(-c2cnn(-c3ccccc3)c2N)cc1 . Is its activity below 80%?
Completion: met

Prompt: Here's an entry: N#CC1=C(N)N2C(=C(C#N)C1c1cccc(Br)c1)Nc1ccccc12 (stereo not given) . Is its activity below 80%?
Completion: met

Prompt: Here's an entry: Cc1cc2ncc(-c3ncc(C(F)(F)F)cc3Cl)cn2n1 . Is its activity below 80%?
Completion: met

Prompt: Here's an entry: CCOC(=O)C1=C(CC)Nc2ccccc2N=C1NC(=O)Nc1ccc(Cl)c(Cl)c1 . Is its activity below 80%?
Completion: met

Prompt: Here's an entry: O=C(NCCOc1ccccc1)c1cccc2c1C(=O)c1ccc(Cl)cc1S2(=O)=O . Is its activity below 80%?
Completion: met

Prompt: Here's an entry: CC(C)(C)NCCC(O)c1cc(C(F)(F)F)nc2c(C(F)(F)F)cccc12 (stereo not given) . Is its activity below 80%?
Completion: not met

Prompt: Here's an entry: CN(C)c1cccc(/C=C(\C#N)c2ccccc2)c1 . Is its activity below 80%?
Completion: met

Prompt: Here's an entry: CCc1nnc(NC(=O)c2nc(S(=O)(=O)Cc3cccc(C)c3)ncc2Cl)s1 . Is its activity below 80%?
Completion: not met

Prompt: Here's an entry: CCN1CCN(c2c(Cl)cccc2NC(=O)c2ccc([N+](=O)[O-])o2)CC1 . Is its activity below 80%?
Completion: met

Prompt: Here's an entry: COc1cccc(C(=O)/C=C/Nc2cccc(O)c2)c1 . Is its activity below 80%?
Completion: met

Prompt: Here's an entry: CNc1nnc(-c2ccc(N(C)C)cc2)s1 . Is its activity below 80%?
Completion: met

Prompt: Here's an entry: COc1cccc2sc(N(C)c3ccccc3)nc12 . Is its activity below 80%?
Completion: met

Prompt: Here's an entry: CCc1nc(N2CCN(C(=O)CCl)CC2)c2c3c(sc2n1)CC(C)CC3 (stereo not given) . Is its activity below 80%?
Completion: not met
